For each record, write down the corresponding inhibition in vivo at 20 mg/kg.
Test system: rat model of hyperalgesia induced by carragenine
experiment.notes: Paw pressure test, hyperalgesia induced by carragenine
Format: in vivo
measurement.conditions: 1 h, 60 min, 20 mg/Kg, read-out: Analgesia 60 min MPE
Give bare numbers, in %.

Below: 3 molecules and their reported inhibition in vivo at 20 mg/kg.
molecule	property.label	output.unit	observed.value
CCCCOC(=O)Cc1cc(-c2ccc(S(C)(=O)=O)cc2)n(-c2ccc(F)c(F)c2)c1C [Example 5]	inhibition in vivo at 20 mg/kg	%	100
Cc1c(CC(=O)OC(C)C)cc(-c2ccc(S(C)(=O)=O)cc2)n1-c1ccc(F)c(F)c1 [Example 2]	inhibition in vivo at 20 mg/kg	%	70
Cc1ccc(-c2cc(C(F)(F)F)nn2-c2ccc(S(N)(=O)=O)cc2)cc1 [Celecoxib]	inhibition in vivo at 20 mg/kg	%	81

Report inhibition in vivo at 20 mg/kg for each item below.
1. CCOC(=O)Cc1cc(-c2ccc(S(C)(=O)=O)cc2)n(-c2ccc(F)c(F)c2)c1C [Compound 5b, reference compound]
2. CCOC(=O)Cc1cc(-c2ccc(S(C)(=O)=O)cc2)n(-c2cccc(F)c2)c1C [Compound 4b, reference compound]
3. Cc1c(CC(=O)OC(C)C)cc(-c2ccc(S(C)(=O)=O)cc2)n1-c1cccc(F)c1 [Example 4]
4. CCOC(=O)Cc1cc(-c2ccc(S(C)(=O)=O)cc2)n(-c2ccccc2)c1C [Compound 1b, reference compound]
5. COc1ccc(-n2c(-c3ccc(S(C)(=O)=O)cc3)cc(CC(=O)OC(C)C)c2C)cc1 [Example 3]

Ans.
1. 36
2. 40
3. 80
4. 30
5. 90
